Provide the reported Relative Cell Growth of each item.
System: AGS cell strain
PROTOCOL_TEXT: Cell growth test (CCK-8 assay) after transfection of BART miRNA mimics
Type: cell-based
TEST_CONDITIONS: mimic 10 nM, 72 hours after transfection, relative to scrambled control (=1), n=9
Please give only the number in your answer, with no unit.

Looking up BART3-5p: EBV BART miRNA mimic, double stranded RNA; sense SEQ NO: 1, antisense SEQ NO: 2 (sense ACCUAGUGUUAGUGUUGUGCU; antisense AGCACAACACUAACACUAGGU; chemistry not given here) , I see its Relative Cell Growth listed as 1.272

Relative Cell Growth for BART14-5p: EBV BART miRNA mimic, double stranded RNA; sense SEQ NO: 81, antisense SEQ NO: 82 (sense UACCCUACGCUGCCGAUUUACA; antisense UGUAAAUCGGCAGCGUAGGGUA; chemistry not given here) is 1.408

# substance BART4-5p: EBV BART miRNA mimic, double stranded RNA; sense SEQ NO: 5, antisense SEQ NO: 6 (sense GACCUGAUGCUGCUGGUGUGCU; antisense AGCACACCAGCAGCAUCAGGUC; chemistry not given here) ; its Relative Cell Growth = 0.9348

* * *

System: AGS cell strain
PROTOCOL_TEXT: Measurement of apoptosis (Annexin V staining, FACS)
Type: cell-based
TEST_CONDITIONS: AGS; mimic 10 nM, 10 uM 5-FU 24 h after transfection, then 48 hours; Annexin V; relative to scrambled control (=1); n=9
Consider the following substances; for each one, report its Relative Apoptotic cell.
Write the value as a bare number.

The reported value for BART10-5p: EBV BART miRNA mimic, double stranded RNA; sense SEQ NO: 57, antisense SEQ NO: 58 (sense GCCACCUCUUUGGUUCUGUACA; antisense UGUACAGAACCAAAGAGGUGGC; chemistry not given here) in terms of Relative Apoptotic cell is 0.8373

The substance BART14-3p: EBV BART miRNA mimic, double stranded RNA; sense SEQ NO: 83, antisense SEQ NO: 84 (sense UAAAUGCUGCAGUAGUAGGGAU; antisense AUCCCUACUACUGCAGCAUUUA; chemistry not given here) showed Relative Apoptotic cell equal to 0.9426

Looking up BART20-5p: EBV BART miRNA mimic, double stranded RNA; sense SEQ NO: 73, antisense SEQ NO: 74 (sense UAGCAGGCAUGUCUUCAUUCC; antisense GGAAUGAAGACAUGCCUGCUA; chemistry not given here) , I found its Relative Apoptotic cell recorded as 1.075

Form: substance = BART12-3p: EBV BART miRNA mimic, double stranded RNA; sense SEQ NO: 67, antisense SEQ NO: 68 (sense UCCUGUGGUGUUUGGUGUGGUU; antisense AACCACACCAAACACCACAGGA; chemistry not given here) ; Relative Apoptotic cell = 1.084

Record summary for BART1-5p: EBV BART miRNA mimic, double stranded RNA; sense SEQ NO: 9, antisense SEQ NO: 10 (sense UCUUAGUGGAAGUGACGUGCUGUG; antisense CACAGCACGUCACUUCCACUAAGA; chemistry not given here) : reported Relative Apoptotic cell = 1.08

# substance BART16-3p: EBV BART miRNA mimic, double stranded RNA; sense SEQ NO: 23, antisense SEQ NO: 24 (sense AUCACCACCCUCUAUCCAUAU; antisense AUAUGGAUAGAGGGUGGUGAU; chemistry not given here) ; its Relative Apoptotic cell = 1.37

Lookup result for BART15-3p: EBV BART miRNA mimic, double stranded RNA; sense SEQ NO: 15, antisense SEQ NO: 16 (sense GUCAGUGGUUUUGUUUCCUUGA; antisense UCAAGGAAACAAAACCACUGAC; chemistry not given here) ; measured Relative Apoptotic cell: 1.665

Entry under test: BART6-5p: EBV BART miRNA mimic, double stranded RNA; sense SEQ NO: 29, antisense SEQ NO: 30 (sense UAAGGUUGGUCCAAUCCAUAGG; antisense CCUAUGGAUUGGACCAACCUUA; chemistry not given here) . Its Relative Apoptotic cell was 1.117

// Relative Apoptotic cell value for BART14-5p: EBV BART miRNA mimic, double stranded RNA; sense SEQ NO: 81, antisense SEQ NO: 82 (sense UACCCUACGCUGCCGAUUUACA; antisense UGUAAAUCGGCAGCGUAGGGUA; chemistry not given here) : 1.054

What the record says about BART4-3p: EBV BART miRNA mimic, double stranded RNA; sense SEQ NO: 7, antisense SEQ NO: 8 (sense CACAUCACGUAGGCACCAGGUGU; antisense ACACCUGGUGCCUACGUGAUGUG; chemistry not given here) : Relative Apoptotic cell is 1.133
